- measuredOn: Histone-arginine methyltransferase CARM1 (Homo sapiens)
- Sequence (Q86X55 whole entry, the tested form may be a part): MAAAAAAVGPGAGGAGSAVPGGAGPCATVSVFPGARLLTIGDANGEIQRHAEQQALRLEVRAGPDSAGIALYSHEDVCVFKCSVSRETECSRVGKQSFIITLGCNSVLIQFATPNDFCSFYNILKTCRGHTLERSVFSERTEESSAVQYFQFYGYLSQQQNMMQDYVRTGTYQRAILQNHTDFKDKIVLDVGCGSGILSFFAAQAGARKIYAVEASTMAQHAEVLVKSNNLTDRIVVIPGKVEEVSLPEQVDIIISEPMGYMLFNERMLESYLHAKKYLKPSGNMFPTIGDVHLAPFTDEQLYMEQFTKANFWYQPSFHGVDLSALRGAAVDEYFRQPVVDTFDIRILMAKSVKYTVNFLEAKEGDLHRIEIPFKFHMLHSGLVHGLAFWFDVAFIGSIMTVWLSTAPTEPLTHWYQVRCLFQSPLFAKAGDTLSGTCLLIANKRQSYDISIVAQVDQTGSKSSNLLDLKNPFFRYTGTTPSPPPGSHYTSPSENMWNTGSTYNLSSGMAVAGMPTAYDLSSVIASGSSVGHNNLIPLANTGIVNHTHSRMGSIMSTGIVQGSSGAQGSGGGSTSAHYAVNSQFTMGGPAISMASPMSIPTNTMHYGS
- assayMethodText: Binding affinity to full-length Halo-tagged human CARM1 (1 to 608 residues) expressed in 293-F cells by surface plasmon resonance assay
- assayConditions: read-out: Kd
metricName: pKd
The read-out pKd is expressed as -log10 of concentration in moles per litre.

Qu. Histone-arginine methyltransferase CARM1 (Homo sapiens) / pKd / "C[C@H](N)C(=O)NCc1cccnc1Oc1ccc(F)cc1F" : value?
Ans. 5.05

====

- measuredOn: Protein arginine N-methyltransferase 8 (Homo sapiens, UniProt Q9NR22)
- Sequence (Q9NR22 whole entry): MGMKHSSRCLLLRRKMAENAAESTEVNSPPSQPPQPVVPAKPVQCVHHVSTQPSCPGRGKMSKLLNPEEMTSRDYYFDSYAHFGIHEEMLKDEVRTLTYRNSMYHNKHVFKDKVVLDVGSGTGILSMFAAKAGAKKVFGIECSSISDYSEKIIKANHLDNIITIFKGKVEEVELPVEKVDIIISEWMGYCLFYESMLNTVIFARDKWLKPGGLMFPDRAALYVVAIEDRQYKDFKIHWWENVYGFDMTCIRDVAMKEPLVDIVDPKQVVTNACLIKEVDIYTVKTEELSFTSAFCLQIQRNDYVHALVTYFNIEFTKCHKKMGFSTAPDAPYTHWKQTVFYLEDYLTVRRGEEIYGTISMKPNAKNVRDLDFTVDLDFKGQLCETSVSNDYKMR
- assayMethodText: Inhibition of PRMT8 (unknown origin)
- assayConditions: read-out: IC50
Listed next: entries and their corresponding IC50.
Field: numeric (µM). Do not append units.

Worked cases, IC50 given:
# givenSmiles, IC50 (µM)
records = [
    ("CN(CCN)Cc1ccccc1", 6),
    ("CNCCN1CCCC1", 10),
]

Qu. Please give the measured IC50 for this compound: "CNCCNC1CCN(c2cccc(-c3ccnc(C)n3)c2)CC1"
Ans. 26
